- run-description: in vivo
- run-parameters: rat, determined in rats, oral toxicity
- Source text: For example, 4-chloro-3', 5'-di(trifluoromethyl)-benzanilide has an LD50 of […], determined in rats.
measured-metric: LD50 (mg/kg)
Write it as a number; the unit mg/kg goes unstated.

Query O=C(Nc1cc(C(F)(F)F)cc(C(F)(F)F)c1)c1ccc(Cl)cc1 [Compound 19] yields LD50 of 6000
